# METHOD_SUMMARY: physchem
MEASUREMENT_LABEL: solubility

>  <SMILES_INPUT>
C[C@@H](c1nc(-c2ccc(C#N)cc2)cs1)[C@](O)(Cn1cncn1)c1ccc(F)cc1F

>  <RESULT>
< 6 µg/mL

$$$$
